Target: Nuclear receptor subfamily 1 group I member 2 (Rattus norvegicus) (UniProt Q9R1A7)
Sequence (Q9R1A7 whole entry, looked up): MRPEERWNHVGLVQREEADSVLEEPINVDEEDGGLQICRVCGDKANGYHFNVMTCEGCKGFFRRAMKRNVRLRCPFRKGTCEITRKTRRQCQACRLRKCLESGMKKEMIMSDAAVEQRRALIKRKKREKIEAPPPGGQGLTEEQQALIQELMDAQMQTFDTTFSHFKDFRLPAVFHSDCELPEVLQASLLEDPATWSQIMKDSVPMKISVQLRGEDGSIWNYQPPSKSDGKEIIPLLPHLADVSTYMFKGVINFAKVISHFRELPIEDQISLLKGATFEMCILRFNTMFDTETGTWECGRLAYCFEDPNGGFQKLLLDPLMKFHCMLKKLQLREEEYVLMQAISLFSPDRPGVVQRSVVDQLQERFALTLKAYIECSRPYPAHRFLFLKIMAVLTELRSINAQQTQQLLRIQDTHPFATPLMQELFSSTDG
Assay: Rat pregnane X receptor (rPXR) activation by small molecules, qHTS assay (AID 1346983); further: on the % scale 0 is the no-effect control and ±100 the full control effect
Conditions: rPXR luciferase reporter cells, One-Glo luminescence, 24 h; stronger effect = higher value
Records with an inconclusive call do not appear.
Recorded max activation values for a group of compounds are listed next.
Reply numerically in %, unit not repeated.

Here's what some known entries look like.
compound: O=C(c1ccccc1)C(O)c1ccccc1 (stereo not drawn)
max activation [%]: -4.09
//
compound: Cc1cn([C@H]2C[C@H](N=[N+]=[N-])[C@@H](CO)O2)c(=O)[nH]c1=O
max activation [%]: -3.59
//
compound: CC(C)[C@@H]1CC[C@@H](C)C[C@H]1O
max activation [%]: -1.21
//
compound: CNC[C@H](O)c1cccc(O)c1
max activation [%]: -0.862
//
compound: Oc1ccc(/C=C/c2cc(O)cc(O)c2)cc1
max activation [%]: -1.25

Here is the next item to consider.
Ask | Supply measured max activation of C/C=C/c1ccc(OC)cc1 in your reply.
Reply | -1.43
